Biological target: 15-PGDH/HPGD (Homo sapiens)
Sequence (P15428 whole entry): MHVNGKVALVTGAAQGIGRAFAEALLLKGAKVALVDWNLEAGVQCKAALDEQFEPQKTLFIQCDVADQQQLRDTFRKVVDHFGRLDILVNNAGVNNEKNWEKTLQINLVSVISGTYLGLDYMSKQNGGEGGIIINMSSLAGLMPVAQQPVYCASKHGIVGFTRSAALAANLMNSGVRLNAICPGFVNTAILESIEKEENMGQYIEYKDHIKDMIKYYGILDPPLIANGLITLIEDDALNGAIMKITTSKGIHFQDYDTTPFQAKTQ
Assay: hPGDH inhibitor screening biochemical assay
Settings: 10 nM enzyme, 15 μM Prostaglandin E2, 0.25 mM NAD, fluorescence ex/em 340/485 nm
IC50 values by entry

Previously resolved entries follow.
| COMPOUND | TEST READOUT | RESULT |
| --- | --- | --- |
| O[C@H](COC1CCC1)c1cnc2c(cnn2-c2ccc(N3CCCC3)cc2)c1 [Compound 75A] | IC50 | 100 to 1000 nM |
| CCC1(OC[C@H](O)c2cnc3c(cnn3-c3ccc(C(=O)O)cc3)c2)CC1 [Compound 93A] | IC50 | < 100 nM |
| CC(C)OC[C@H](O)c1cnc2c(cnn2-c2ccc(OCC(=O)O)c(F)c2)c1 [Compound 74B] | IC50 | 100 to 1000 nM |

Prompt: Looking for the measured IC50 of CCOC(C)(C)C(O)c1cnc2c(cnn2-c2cccc(-c3nnc[nH]3)c2)c1 (single isomer, unassigned) [Compound 34A] , can you help?
Completion: < 100 nM

Prompt: # iterate: CC(C)OC[C@H](O)c1cnc2c(cnn2-c2ccc(CCC(=O)O)cc2)c1 [Compound 69B]
Completion: 100 to 1000 nM
